Numbers sourced from PubChem BioAssay (NCI).

Form field: growth (one value per entry).
# System: DU-145 prostate
# methodSummary: NCI-60 one-dose screen, 48 h (100 = growth as untreated, 0 = no growth, -100 = all killed)
# assaySetup: 10 µM
The panel holds about 83,000 compounds, 20% with a hit somewhere; the sample as a whole holds those more often.
Return type: number; implicit unit %.

Input line: Please look up its growth: C/C(=N\NC(=O)c1sc(=S)n(C)c1N)c1cc2ccccc2o1
Output line: 77.4

Input line: Please look up its growth: Nc1cc(O)cc(O)c1
Output line: 103

Input line: Please look up its growth: CCCN(CCC)CCCNC(=O)c1cc2c(-c3ccc(OC)c(OC)c3)nn(C)c2s1
Output line: 13

Input line: Please look up its growth: O=C(OCc1ncc(-c2ccc(C(F)(F)F)cc2)c(NC2CCCCCC2)n1)c1c(F)c(F)c(F)c(F)c1F
Output line: 77.2

Input line: Please look up its growth: COc1ccc(-c2nc(-c3ccccc3)c(-c3ccccc3)[nH]2)cc1OC1CCCC1
Output line: 86.4

Input line: Please look up its growth: O=C(O)c1ccccc1C(=O)c1cccc2c(F)cccc12
Output line: 112

Input line: Please look up its growth: CC(C)=C1CCC(C)C/C1=N\N=C(N)N (stereo unspecified)
Output line: 105

---

# Test system: T-47D breast
# methodSummary: NCI-60 one-dose screen, 48 h (100 = growth as untreated, 0 = no growth, -100 = all killed)
# assaySetup: 10 µM
Compounds without any hit were thinned out: in the full panel of roughly 83,000, 20% have a hit.
Form field: growth (one value per entry).
Return type: number; implicit unit %.

Examples from the recorded data:
molecule	measuredOn	growth (%)
COc1cc(CSc2nc3ccc(C)cc3c(=O)n2-c2ccccc2)cc(OC)c1OC	T-47D breast	28.2
NC1CCC(Nc2nc(NCc3ccc(-c4cccs4)nc3)c3ncn(C4CCCC4)c3n2)CC1 (stereo not given)	T-47D breast	-22.9
CCCn1c(=O)c2c(nc(-c3cccc(OCCCCl)c3)n2C)n(CCC)c1=O	T-47D breast	15.8
CCN(CC)c1ccc(/C=C/C2=[N+](C)c3ccccc3C2(C)C)c(C)c1	T-47D breast	-0.932

Turning now to a further record.
Input line: Please look up its growth: Cc1cnc(C=O)c2cccc([N+](=O)[O-])c12
Output line: 82.3

---

# Test system: SK-OV-3 ovarian
# methodSummary: NCI-60 one-dose screen, 48 h (100 = growth as untreated, 0 = no growth, -100 = all killed)
# assaySetup: 10 µM
Compounds without any hit were thinned out: in the full panel of roughly 83,000, 20% have a hit.
Form field: growth (one value per entry).
Return type: number; implicit unit %.

Input line: Please look up its growth: CCOC(=O)c1c(C)n(-c2ccc(Cl)cc2)c2ccc(OC(=O)/C=C/c3ccccc3)cc12
Output line: 93.9

Input line: Please look up its growth: Nc1ncc(-c2ccc(C(F)(F)F)cc2)c(NC2CCCCCC2)n1
Output line: 76.1

---

# System: CCRF-CEM leukemia
# methodSummary: NCI-60 one-dose screen, 48 h (100 = growth as untreated, 0 = no growth, -100 = all killed)
# assaySetup: 10 µM
About 83,000 compounds went through this panel and 20% of them were active in at least one assay; those are over-represented in the sample as a whole.
recordedMetric: growth (%)
Return type: number; implicit unit %.

compound	recordedMetric	quantitativeResult
O=[N+]([O-])c1ccc(-c2nc(Cl)c3c(n2)CCCC3)o1	growth	86.8
C/C(=N\NC(=S)N1CCCC1)c1ccccn1	growth	0.145
COc1ccc(C2C=C(c3ccc(Cl)c(Cl)c3)N=C3SC(C)=CN32)cc1OC (stereo unspecified)	growth	58.5

Input line: Please look up its growth: COc1ccc(Cn2cc3c(c2-c2cc(OC)c(OC)c(OC)c2)CCc2cnoc2-3)cc1N
Output line: 23.7

Input line: Please look up its growth: CCCc1c(C)nc2scc(-c3ccc(Cl)cc3)n2c1=O
Output line: 95

Input line: Please look up its growth: CCCCCCCCCCCCc1ccc(C(=O)/C=C/C(=O)O)cc1
Output line: -17.6

---

# Tested on: TK-10 renal
# methodSummary: NCI-60 one-dose screen, 48 h (100 = growth as untreated, 0 = no growth, -100 = all killed)
# assaySetup: 10 µM
The panel holds about 83,000 compounds, 20% with a hit somewhere; the sample as a whole holds those more often.
Form field: growth (one value per entry).
Return type: number; implicit unit %.

Examples from the recorded data:
CCOC(=O)c1cc2c(n1Cc1cccc(OC)c1)-c1oncc1CC2 53.2
COc1ccc(-c2nnc(COc3ccc(NC(=O)Nc4ccccc4)cc3F)o2)cc1 101
O=C1CC[C@@H](C(=O)N[C@H]2CSSC[C@@H](C(=O)N/C=C/c3ccc(O)cc3)NC(=O)[C@H](Cc3ccccc3)NC(=O)[C@@H]3CCCN3C(=O)[C@@H]3CCCN3C2=O)N1 94.8
CNCCCNCCCN1C(=O)c2ccc3c4c(ccc(c24)C1=O)C(=O)N(CCCNCc1ccccc1OC)C3=O -14
CCOC(=O)Nc1ccc2c(c1)C(=O)N(CC)c1ccccc1O2 74.8

Input line: Please look up its growth: Cc1ccccc1C1=N[C@@H](Cc2ccccc2)C(=O)c2c(nc3ccccn23)N1
Output line: 138

Input line: Please look up its growth: COC(=O)c1ccc(Cn2ccc(=O)[nH]c2=O)cc1
Output line: 104

Input line: Please look up its growth: Fc1ccc(-c2cc(C(Cl)Cl)no2)cc1
Output line: 131

Input line: Please look up its growth: N=C(N)c1ccc(-c2ccc(-c3ccccc3)s2)cc1F
Output line: -95

Input line: Please look up its growth: CCCCC(=O)N(c1ccc(Nc2c3ccccc3nc3cc([N+](=O)[O-])ccc23)cc1)S(C)(=O)=O
Output line: 95.8

---

# System: HS 578T breast
# methodSummary: NCI-60 one-dose screen, 48 h
# assaySetup: 10 µM
About 83,000 compounds went through this panel and 20% of them were active in at least one assay; those are over-represented in the sample as a whole. Activity calls are given as the source filed them. How the source made its calls: active means growth percent below 10; inactive means the rest.
Hello, when you answer, please use one of the following outcomes: 1 = active, 0 = inactive

Field: example entries. Status: answers known.
compound	groupLabel
O=[N+]([O-])c1ccc(-c2nc(Cl)c3c(n2)CCCC3)o1	0
COc1ccc(C(=O)/C=C/c2cc(-c3ccc(OC)c(OC)c3)n[nH]2)cc1OC	0
COc1ccccc1CNCCCN1C(=O)c2ccc3c4c(ccc(c24)C1=O)C(=O)N(CCCNCCNCCCN)C3=O	0
O=C(O)CCCN1C(=O)NC2(C1=O)c1ccccc1-c1ccccc12	0
CCOc1nc(-c2ccccc2)cc2c(O)c(C(=O)NC(C)C)[nH]c(=O)c12	0

Input line: State the result this test recorded for CCn1nc(-c2ccc(C(=O)OC)cc2)nc2c(=O)n(C)c(=O)nc1-2 .
Output line: 0

Input line: State the result this test recorded for O=C(N/N=C\c1cc(Cl)ccc1O)c1ccncc1 .
Output line: 0

Input line: State the result this test recorded for COc1ccc2nc(-c3ccccc3)cc(C(C)=O)c2c1 .
Output line: 0

Input line: State the result this test recorded for CC(=O)Oc1c(C)c(C)c2c(c1C)CCC(C)(CC(=O)OCCCCCCCCCCC[P+](c1ccccc1)(c1ccccc1)c1ccccc1)O2 (stereo unspecified) .
Output line: 1

Input line: State the result this test recorded for CCN(CC)CCn1c(=N)n(CC(O)c2ccc(Cl)c(Cl)c2)c2ccccc21 (stereo unspecified) .
Output line: 0

Input line: State the result this test recorded for FC(F)(F)c1ccc(-c2cnc(Cl)nc2NC2CCCCCC2)cc1 .
Output line: 0

---

Form field: growth (one value per entry).
# Test system: HT29 colon
# methodSummary: NCI-60 one-dose screen, 48 h (100 = growth as untreated, 0 = no growth, -100 = all killed)
# assaySetup: 10 µM
About 83,000 compounds went through this panel and 20% of them were active in at least one assay; those are over-represented in the sample as a whole. Active and inactive are the calls of the source. Rule for the calls: active = growth percent below 10; inactive = the rest.

Examples from the recorded data:
compound	growth
Nc1c(C(=O)Nc2ccccc2F)sc2nc3c(cc12)C(=O)CCC3	12.2% (inactive)
O=C1/C(=C/c2ccc([N+](=O)[O-])s2)Oc2ccc(Cl)cc21	-36.1% (active)
Cn1cnc([N+](=O)[O-])c1Sc1nnc(-c2ccccc2)c(-c2ccccc2)n1	74.8% (inactive)
COc1cc(CSc2nc3ccc(C)cc3c(=O)n2-c2ccccc2)cc(OC)c1OC	14.3% (inactive)
CCCCCC(CCC)COC(=O)c1ccc(OC)cc1 (stereo not given)	101% (inactive)

Input line: Please look up its growth: O/N=C1\CCC2CCCCC2C1 (stereo not given)
Output line: 99.2% (inactive)

Input line: Please look up its growth: COc1cc2nc(Sc3sc(N)nc3C)n(-c3ccc(Oc4ccccc4)cc3)c(=O)c2cc1OC
Output line: 75% (inactive)

Input line: Please look up its growth: COc1ccc2nc(/C=C/c3ccc(N(C)C)cc3)sc2c1
Output line: 93.3% (inactive)

Input line: Please look up its growth: NC1CCC(Nc2nc(NCc3ccc(-c4ccccc4O)nc3)c3ncn(C4CCCC4)c3n2)CC1 (stereo not given)
Output line: -22.5% (active)

Input line: Please look up its growth: CC(C)/C=N/NC(N)=S
Output line: 62.2% (inactive)
